Target: T1, Human ADAMTS13 (human, UniProt Q76LX8 75-685, limits assumed)
T1 sequence (looked up): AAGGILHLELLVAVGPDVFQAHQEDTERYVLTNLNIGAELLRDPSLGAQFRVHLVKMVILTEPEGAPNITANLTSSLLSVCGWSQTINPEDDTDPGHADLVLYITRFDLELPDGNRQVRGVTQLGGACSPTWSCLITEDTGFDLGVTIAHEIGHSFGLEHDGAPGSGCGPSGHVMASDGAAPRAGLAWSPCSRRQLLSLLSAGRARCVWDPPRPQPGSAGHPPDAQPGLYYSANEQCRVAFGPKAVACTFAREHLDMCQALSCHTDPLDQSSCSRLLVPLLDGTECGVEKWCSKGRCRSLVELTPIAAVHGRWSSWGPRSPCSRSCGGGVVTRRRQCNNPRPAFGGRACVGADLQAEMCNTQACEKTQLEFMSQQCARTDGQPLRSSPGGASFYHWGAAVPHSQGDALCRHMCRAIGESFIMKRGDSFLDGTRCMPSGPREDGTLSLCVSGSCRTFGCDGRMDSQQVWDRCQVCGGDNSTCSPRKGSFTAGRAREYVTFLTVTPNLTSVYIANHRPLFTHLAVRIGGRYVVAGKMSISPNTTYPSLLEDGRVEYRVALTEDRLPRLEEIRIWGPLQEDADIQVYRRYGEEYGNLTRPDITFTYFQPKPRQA
Assay: celTRF and Octet QK cross-reactivity
measurement type: binding result

| binder | result |
| --- | --- |
| 7B4.1E11 (antibody, IgG1, V domains shown, also called Murine 7B4.1E11) VH: EVKLEESGGGLVQPGGSMKLSCAASGFTSSDAWMDWVRQSPEKGLEWVAEIRNKANNHARHYAESVKGRFTISRDDSKSSVYLQMNSLRAEDSGIYYCTRTYYYGSSYGYCDVWGTGTTVTVSS VL: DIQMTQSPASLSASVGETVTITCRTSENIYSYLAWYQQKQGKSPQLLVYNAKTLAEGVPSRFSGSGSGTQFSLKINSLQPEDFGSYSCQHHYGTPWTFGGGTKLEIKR | no binding |
| 2D3.1D4 (antibody, V domains shown, Murine monoclonal antibody from a hybridoma) VH: EVKLEESGGGLVQPGGSMKLSCAASGITFSDAWMDWVRQSPEKGLEWVADIRNTANNHATFYAESVKGRFTISRDDSKSTVYLQMNTLRPEDTGIYYCTSPFAYWGQGTLVTVSA VL: DIVMTQSQKFMSTTVGDRVSITCKASQNVGTAVVWFQQKPGQSPKLLIYSASNRYTRVPDRFTGSGSGTDFTLTISNVQSEDLADYFCQQYVNYPFTFGSGTKLEIKR | no binding |
| 5F10.1H6 (antibody, V domains shown, Murine monoclonal antibody from a hybridoma) VH: EVKLEESGGGLVQPGGSMKLSCAASGFTFSDAWMDWVRQSPEKGLEWVAEIRHKANDHAIFYDESVKGRFTISRDDSKSIVYLQMNSLRPEDTGIYYCTSPFAYWGQGTLVTVSA VL: DIVMTQSQRFMSVTVGDRVSITCKASQSVGTTIVWYQQKPGQSPKLLIYSASTRYTGVPDRFTGGGSGTDFILTINNVQSEDLADYFCQQYSSYPFTFGSGTKLEIKR | no binding |

Measured values drawn from patent US20120095193A1 for this set.
